B1: TMEM106C (parent)
chain: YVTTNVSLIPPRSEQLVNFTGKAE

Variants of: B1
Test: protein stability index of a GFP-peptide fusion (GPS, HEK-293T) (PSI 1-6); higher = more stable;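 also: lentivirally expressed fusions sorted by FACS into six bins by GFP to DsRed ratio, PSI derived from sequencing read proportions per bin multiplied by bin number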
Settings: c terminus: a fixed tail appended
Listing: protein stability index of selected variants
Answer with the value's number alone.

V6A: 1.86
T3K: 2.18
V6N: 2.26
K22F: 2.26

protein stability index for P11F ?
3.09

protein stability index for P10D ?
1.46

protein stability index for T20I ?
2.08

protein stability index for Q15F ?
1.5

protein stability index for V2R ?
3.23

protein stability index for E24Q ?
2.06

protein stability index for L16A ?
2.14

protein stability index for Y1T ?
3.44

protein stability index for Q15L ?
2.69

protein stability index for T20L ?
1.99

protein stability index for V2E ?
4.58

protein stability index for Q15T ?
2.23

protein stability index for R12Y ?
2.39

protein stability index for T4C ?
1.29

protein stability index for A23H ?
2.47

protein stability index for L16T ?
1.79

protein stability index for N18I ?
3.13

protein stability index for V17E ?
2.24

protein stability index for N5V ?
1.69

protein stability index for S13C ?
2.24

protein stability index for V6Q ?
1.68

protein stability index for R12M ?
2.14

protein stability index for V2C ?
2.3

protein stability index for I9Y ?
2.32

protein stability index for S7H ?
2.29

protein stability index for L16H ?
1.49
